- target_of_assay: PI3K γ (Homo sapiens (Human), UniProt P48736)
- experiment_notes: PI 3-Kinase (human) HTRF assay, p110γ
- Type: biochemical
- condition_details: read-out: PI3K δ IC50
property_label: IC50

Entry `C[C@@H]1CN(C2CN(C(=O)c3cnc4ccc(-c5ccc6oc(N)nc6c5)cn34)C2)CCN1C` : reported IC50 = ? < 10 µM

Entry `CN(C(=O)c1cnc2ccc(-c3ccc4oc(N)nc4c3)cn12)C1CCOCC1` : reported IC50 = ? < 1 µM

Entry `C[C@H]1CN(c2cnc3cccc(-c4ccc5nc(N)oc5c4)c3n2)CCN1` : reported IC50 = ? > 10 µM

Entry `Nc1nsc2c(-c3ccc4ncc(C(=O)N5CCOCC5)n4c3)cccc12` : reported IC50 = ? > 10 µM

Entry `C[C@H]1CN(c2cnc3ccc(-c4cccc5c(N)nsc45)cc3n2)CCN1` : reported IC50 = ? > 10 µM

Further cases:
Entry `Nc1nc2ccc(-c3cc(F)c4ncc(C(=O)N5CCOCC5)n4c3)cc2o1` : reported IC50 = ? > 10 µM

Entry `Cc1cc(-c2ccc3nc(N)oc3c2)cn2c(C(=O)N3CCOCC3)cnc12` : reported IC50 = ? < 0.1 µM

Entry `Nc1nc2cc(-c3ccc4ncc(N5CCN(C(=O)C6(N)CC6)CC5)nc4c3)ccc2o1` : reported IC50 = ? < 10 µM

Entry `C[C@H]1CN(c2nc3cc(-c4ccc5oc(N)nc5c4)ccc3nc2N)CCN1` : reported IC50 = ? > 10 µM

Entry `COCCN1CCN(c2cnc3ccc(-c4ccc5oc(N)nc5c4)cc3n2)CC1` : reported IC50 = ? < 1 µM

###

- target_of_assay: PI3K γ (Homo sapiens (Human))
- experiment_notes: PI 3-Kinase (human) HTRF assay, p110γ
- Type: biochemical
- condition_details: read-out: PI3K γ IC50
Listed next: entries and their corresponding IC50.

Entry CN1CCC(n2cnc3ccc(-c4ccc5oc(N)nc5c4)cc3c2=O)CC1 [Compound 36] : reported IC50 = ? > 10000 nM

Entry `Nc1nc2cc(-c3cnc4ncc(-c5ccncc5)n4c3)ccc2o1` : reported IC50 = ? > 10000 nM

Entry `CC(=O)Nc1nc2ccc(-c3nc(N4CCOCC4)c4sc(CN5CCN(S(C)(=O)=O)CC5)cc4n3)cc2s1` : reported IC50 = ? > 10000 nM

Further cases:
Entry Cn1cc(-c2cnc3ccc(-c4ccc5oc(N)nc5c4)cn23)cn1 [Compound 41] : reported IC50 = ? < 1000 nM

Entry `Nc1nc2cc(-c3ccc4ncc(C(=O)NCCO)n4c3)ccc2o1` : reported IC50 = ? < 100 nM

Entry `CCN1CCN(C2CN(c3cnc4ccc(-c5ccc6oc(N)nc6c5)nc4n3)C2)CC1` : reported IC50 = ? < 10000 nM

Entry `Cc1nccn1C1CN(c2cnc3ccc(-c4ccc5oc(N)nc5c4)nc3c2)C1` : reported IC50 = ? < 100 nM

Entry `C[C@@H]1CN(C2CN(c3cnc4ccc(-c5ccc6oc(N)nc6c5)nc4c3)C2)CCN1` : reported IC50 = ? < 1000 nM

Entry Nc1nc2cc(-c3ccc4nccc(-c5cccnc5)c4c3)ccc2o1 [Compound 31] : reported IC50 = ? < 100 nM

Entry `COC(=O)N1CCN(c2cnc3ccc(-c4ccc5oc(N)nc5c4)cc3n2)CC1` : reported IC50 = ? < 100 nM

Entry Nc1nc2cc(-c3ccc4ncnc(OC5CCOCC5)c4c3)ccc2o1 [Compound 47] : reported IC50 = ? < 1000 nM

Entry `C[C@H]1CN(c2cnc3ccc(-c4ccc5oc(N)nc5c4)nc3c2)CCN1` : reported IC50 = ? < 1000 nM

Entry `C[C@H]1CN(C2CN(c3cnc4ccc(-c5ccc6oc(N)nc6c5)nc4c3)C2)CCN1` : reported IC50 = ? < 10000 nM

###

Quick record: IC50, PI3K β (Homo sapiens (Human), UniProt P42338).

The cases that follow already have their IC50 on record.
Entry `CN1CCN(C2CN(c3cnc4ccc(-c5ccc6oc(N)nc6c5)nc4n3)C2)CC1` : reported IC50 = ? < 10 µM

Entry `Cc1ccn(C2CN(c3cnc4ccc(-c5ccc6oc(N)nc6c5)cc4n3)C2)n1` : reported IC50 = ? < 10 µM

Entry `Nc1nc2cc(-c3ccc4sc(N)nc4c3)ccc2o1` : reported IC50 = ? < 1 µM

Entry `Nc1nc2cc(-c3ccc4ncc(C(=O)N5CC[C@H](n6cccn6)C5)n4c3)ccc2o1` : reported IC50 = ? < 10 µM

Entry `CC1(C)CN(C2CN(c3cnc4ccc(-c5ccc6oc(N)nc6c5)nc4n3)C2)CCN1` : reported IC50 = ? < 10 µM

Further cases:
Entry `C[C@H]1CN(c2cnc3ccc(-c4cccc5c(N)noc45)cc3n2)CCN1` : reported IC50 = ? > 10 µM

Entry `Nc1nc2cc(-c3ccc4ncc(N5CCC(N)CC5)nc4c3)ccc2o1` : reported IC50 = ? < 1 µM

Entry CN1CCN(c2ccnc3ccc(-c4ccc5oc(N)nc5c4)cc23)CC1 [Compound 21] : reported IC50 = ? < 10 µM

Entry `CC(=O)Nc1nc(C)c(-c2ccc3oc(N)nc3c2)s1` : reported IC50 = ? < 10 µM

Entry `Nc1nc2cc(-c3ccc4ncn(CCO)c(=O)c4c3)ccc2o1` : reported IC50 = ? < 10 µM

###

Quick record: pIC50, PI3K δ (Homo sapiens (Human), UniProt O00329).
pIC50: −log10 of the molar value.

The cases that follow already have their pIC50 on record.
Could you share what pIC50 was measured for `Nc1nc2cc(-c3ccc4nc(N5CCOCC5)cnc4n3)ccc2o1` , tested on PI3K δ (Homo sapiens (Human), UniProt O00329)? < 5.00

Could you share what pIC50 was measured for `CC(=O)N1CCC(Nc2ncnc3ccc(-c4ccc5oc(N)nc5c4)cc23)CC1` , tested on PI3K δ (Homo sapiens (Human), UniProt O00329)? > 6.00

Could you share what pIC50 was measured for `Nc1nc2cc(-c3ccc4ncc(-c5ccccn5)nc4c3)ccc2o1` , tested on PI3K δ (Homo sapiens (Human), UniProt O00329)? < 5.00

Further cases:
Could you share what pIC50 was measured for `CCN1CCN(C2CN(c3cnc4ccc(-c5ccc6oc(N)nc6c5)nc4n3)C2)CC1` , tested on PI3K δ (Homo sapiens (Human), UniProt O00329)? > 5.00

Could you share what pIC50 was measured for `CS(=O)(=O)N1CCN(C2CN(c3cnc4ccc(-c5ccc6oc(N)nc6c5)nc4n3)C2)CC1` , tested on PI3K δ (Homo sapiens (Human), UniProt O00329)? > 5.00

###

- target_of_assay: PI3K α (Homo sapiens (Human))
- Sequence (P42336 whole entry): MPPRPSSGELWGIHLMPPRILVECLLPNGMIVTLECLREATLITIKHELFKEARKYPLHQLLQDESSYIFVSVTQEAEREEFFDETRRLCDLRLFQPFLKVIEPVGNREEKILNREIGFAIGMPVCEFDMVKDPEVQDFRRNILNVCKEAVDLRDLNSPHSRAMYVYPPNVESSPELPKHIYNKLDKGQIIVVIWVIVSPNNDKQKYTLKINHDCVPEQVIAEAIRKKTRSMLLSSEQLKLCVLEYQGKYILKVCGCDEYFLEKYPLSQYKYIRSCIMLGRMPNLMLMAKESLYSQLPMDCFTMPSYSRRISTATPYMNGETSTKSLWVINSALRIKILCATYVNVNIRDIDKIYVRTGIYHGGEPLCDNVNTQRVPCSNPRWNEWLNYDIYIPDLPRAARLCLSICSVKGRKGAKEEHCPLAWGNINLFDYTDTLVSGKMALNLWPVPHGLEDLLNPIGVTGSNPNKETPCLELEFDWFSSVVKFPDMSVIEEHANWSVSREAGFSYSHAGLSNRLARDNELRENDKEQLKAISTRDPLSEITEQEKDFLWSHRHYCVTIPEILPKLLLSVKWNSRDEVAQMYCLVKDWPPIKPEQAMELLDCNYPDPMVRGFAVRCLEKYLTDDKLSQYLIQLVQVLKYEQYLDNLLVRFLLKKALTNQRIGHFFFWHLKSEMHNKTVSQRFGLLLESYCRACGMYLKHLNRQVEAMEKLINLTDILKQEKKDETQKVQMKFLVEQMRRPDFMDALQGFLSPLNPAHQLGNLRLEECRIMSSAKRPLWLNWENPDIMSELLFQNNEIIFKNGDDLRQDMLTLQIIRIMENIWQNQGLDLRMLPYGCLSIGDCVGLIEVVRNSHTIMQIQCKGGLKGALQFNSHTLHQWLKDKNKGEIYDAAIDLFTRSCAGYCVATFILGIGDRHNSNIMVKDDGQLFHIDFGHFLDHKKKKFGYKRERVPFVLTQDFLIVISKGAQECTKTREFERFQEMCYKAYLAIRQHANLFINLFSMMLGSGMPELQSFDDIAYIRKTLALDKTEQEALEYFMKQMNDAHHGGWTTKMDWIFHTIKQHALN
- Sequence (P27986 whole entry partner): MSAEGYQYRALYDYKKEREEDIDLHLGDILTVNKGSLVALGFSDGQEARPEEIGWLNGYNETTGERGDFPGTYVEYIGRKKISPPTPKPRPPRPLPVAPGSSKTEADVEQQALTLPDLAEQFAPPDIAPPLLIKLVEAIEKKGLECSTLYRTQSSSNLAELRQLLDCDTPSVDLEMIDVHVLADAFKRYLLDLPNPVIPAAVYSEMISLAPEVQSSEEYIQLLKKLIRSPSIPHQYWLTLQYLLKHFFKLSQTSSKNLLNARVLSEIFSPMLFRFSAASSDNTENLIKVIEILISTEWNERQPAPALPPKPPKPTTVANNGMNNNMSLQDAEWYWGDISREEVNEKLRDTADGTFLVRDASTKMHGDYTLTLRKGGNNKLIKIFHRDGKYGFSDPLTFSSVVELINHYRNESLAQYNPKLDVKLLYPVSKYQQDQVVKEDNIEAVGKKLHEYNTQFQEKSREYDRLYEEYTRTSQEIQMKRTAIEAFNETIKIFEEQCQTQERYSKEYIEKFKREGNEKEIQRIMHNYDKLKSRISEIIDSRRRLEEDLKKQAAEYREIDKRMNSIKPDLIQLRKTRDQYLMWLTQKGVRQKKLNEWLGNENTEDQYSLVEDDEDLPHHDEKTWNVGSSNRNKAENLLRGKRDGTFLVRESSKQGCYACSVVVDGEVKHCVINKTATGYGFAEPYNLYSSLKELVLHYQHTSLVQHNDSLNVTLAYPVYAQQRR
pIC50: −log10 of the molar value.
property_label: pIC50

The cases that follow already have their pIC50 on record.
Could you share what pIC50 was measured for `CC1(C)CN(C(=O)c2cnc3ccc(-c4ccc5oc(N)nc5c4)cn23)CCO1` , tested on PI3K α (Homo sapiens (Human))? > 6.00

Could you share what pIC50 was measured for `CC(C)N1CCN(c2cnc3ccc(-c4ccc5oc(N)nc5c4)nc3n2)CC1` , tested on PI3K α (Homo sapiens (Human))? > 7.00

Could you share what pIC50 was measured for `CC(C)N1CCN(c2cnc3ccc(-c4ccc5oc(N)nc5c4)nc3c2)CC1` , tested on PI3K α (Homo sapiens (Human))? > 7.00

Field: next compound
Could you share what pIC50 was measured for Nc1nc2cc(-c3ccc4ncc(OC5CCOCC5)nc4c3)ccc2o1 [Compound 49] , tested on PI3K α (Homo sapiens (Human))? > 7.00

###

Listed next: entries and their corresponding pIC50.
- target_of_assay: mTORC (Homo sapiens (Human))
- Sequence (P42345 1360-2549): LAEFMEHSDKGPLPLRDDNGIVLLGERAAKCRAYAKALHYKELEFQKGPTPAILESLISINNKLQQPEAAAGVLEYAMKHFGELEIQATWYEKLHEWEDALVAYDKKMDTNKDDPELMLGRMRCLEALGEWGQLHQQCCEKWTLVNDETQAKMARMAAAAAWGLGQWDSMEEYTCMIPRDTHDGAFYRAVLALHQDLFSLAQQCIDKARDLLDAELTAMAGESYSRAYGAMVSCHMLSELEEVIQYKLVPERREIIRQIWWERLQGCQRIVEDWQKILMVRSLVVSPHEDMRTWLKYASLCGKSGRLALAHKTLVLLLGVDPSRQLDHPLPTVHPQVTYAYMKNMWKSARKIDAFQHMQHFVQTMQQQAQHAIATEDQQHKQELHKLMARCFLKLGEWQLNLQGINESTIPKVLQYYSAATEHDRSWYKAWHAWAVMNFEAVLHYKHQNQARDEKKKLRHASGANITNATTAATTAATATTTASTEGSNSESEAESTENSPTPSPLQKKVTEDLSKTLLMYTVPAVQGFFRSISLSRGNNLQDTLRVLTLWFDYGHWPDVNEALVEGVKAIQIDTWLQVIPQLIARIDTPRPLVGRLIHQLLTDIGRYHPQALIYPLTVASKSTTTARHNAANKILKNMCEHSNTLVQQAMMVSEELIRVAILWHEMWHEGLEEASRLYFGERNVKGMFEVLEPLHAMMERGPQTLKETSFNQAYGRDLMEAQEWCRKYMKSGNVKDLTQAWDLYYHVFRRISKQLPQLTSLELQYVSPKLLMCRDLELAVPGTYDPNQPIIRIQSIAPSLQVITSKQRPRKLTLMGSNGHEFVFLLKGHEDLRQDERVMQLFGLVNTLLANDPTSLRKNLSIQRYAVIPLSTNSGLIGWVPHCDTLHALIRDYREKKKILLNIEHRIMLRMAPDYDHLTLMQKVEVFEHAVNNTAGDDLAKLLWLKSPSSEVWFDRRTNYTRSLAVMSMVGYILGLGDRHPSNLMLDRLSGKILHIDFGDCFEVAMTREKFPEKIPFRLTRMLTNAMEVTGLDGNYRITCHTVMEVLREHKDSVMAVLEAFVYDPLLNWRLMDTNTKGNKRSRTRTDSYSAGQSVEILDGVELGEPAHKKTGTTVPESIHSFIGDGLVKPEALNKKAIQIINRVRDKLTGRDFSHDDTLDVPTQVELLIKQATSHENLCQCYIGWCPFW
pIC50: −log10 of the molar value.

Could you share what pIC50 was measured for `C[C@H]1CN(c2cnc3ccc(-c4ccc5oc(N)nc5c4)nc3c2)CCN1` , tested on mTORC (Homo sapiens (Human))? < 5.00

Further cases:
Could you share what pIC50 was measured for `Nc1nc2cc(-c3ccc4nc(N)sc4c3)ccc2o1` , tested on mTORC (Homo sapiens (Human))? > 5.00

Could you share what pIC50 was measured for Nc1nc2cc(-c3ccc4ncc(N5CC(C(=O)N6CCOCC6)C5)nc4c3)ccc2o1 [drawing 359] , tested on mTORC (Homo sapiens (Human))? > 5.00

Could you share what pIC50 was measured for `CC1(C)CN(C2CN(c3cnc4ccc(-c5ccc6oc(N)nc6c5)cc4n3)C2)CCN1` , tested on mTORC (Homo sapiens (Human))? > 7.00

Could you share what pIC50 was measured for `Nc1nc2cc(-c3ccc4ncc(N5CCC(n6ccnc6)CC5)nc4c3)ccc2o1` , tested on mTORC (Homo sapiens (Human))? > 5.00

###

- target_of_assay: PI3K γ (Homo sapiens (Human), UniProt P48736)
- experiment_notes: PI 3-Kinase (human) HTRF assay, p110γ
- Assay type: biochemical
- condition_details: read-out: PI3K δ IC50
pIC50: −log10 of the molar value.
property_label: pIC50

The cases that follow already have their pIC50 on record.
Entry `Nc1nc2cc(-c3nc(N4CCOCC4)c4cnn(C5CCNCC5)c4n3)ccc2o1` : reported pIC50 = ? > 6.00

Entry `Nc1nc2cc(-c3ccc4ncc(C(=O)N5CC(O)C5)n4c3)ccc2o1` : reported pIC50 = ? > 7.00

Entry `Nc1nc2cc(-c3ccc4ncc(C(=O)N5CCN(C6CC6)CC5)n4c3)ccc2o1` : reported pIC50 = ? > 5.00

Entry `Nc1nc2cc(-c3ccc4ncc(C(=O)N5CC[C@@H](n6cccn6)C5)n4c3)ccc2o1` : reported pIC50 = ? > 6.00

Entry `Nc1nc2cc(-c3ccc4ncc(N5CC(N6CCN(CC7CC7)CC6)C5)nc4c3)ccc2o1` : reported pIC50 = ? < 5.00

Entry `Nc1nc2cc(-c3ccc4ncc(N5CC[C@H](N6CCOCC6)C5)nc4c3)ccc2o1` : reported pIC50 = ? > 6.00

Further cases:
Entry `COc1ncc(-c2ccc3ncc(C(=O)N4CCOCC4)n3c2)cc1NS(C)(=O)=O` : reported pIC50 = ? > 6.00

Entry `CC(=O)N1CCN(C2CN(c3cnc4ccc(-c5ccc6oc(N)nc6c5)cc4n3)C2)CC1` : reported pIC50 = ? > 6.00

Entry `Nc1nc2c(-c3ccc4ncc(C(=O)N5CCOCC5)n4c3)cccc2o1` : reported pIC50 = ? > 5.00

Entry `Cc1cc2oc(N)nc2cc1-c1ccc2ncc(N3CCN[C@@H](C)C3)nc2c1` : reported pIC50 = ? < 5.00
